Entry source: paper PMC10786891

# MEASURED ON: T1, EsCas13d, nuclease-dead (Eubacterium siraeum, UniProt B0MS50, R295A;H300A;R849A;H854A)
# T1 sequence: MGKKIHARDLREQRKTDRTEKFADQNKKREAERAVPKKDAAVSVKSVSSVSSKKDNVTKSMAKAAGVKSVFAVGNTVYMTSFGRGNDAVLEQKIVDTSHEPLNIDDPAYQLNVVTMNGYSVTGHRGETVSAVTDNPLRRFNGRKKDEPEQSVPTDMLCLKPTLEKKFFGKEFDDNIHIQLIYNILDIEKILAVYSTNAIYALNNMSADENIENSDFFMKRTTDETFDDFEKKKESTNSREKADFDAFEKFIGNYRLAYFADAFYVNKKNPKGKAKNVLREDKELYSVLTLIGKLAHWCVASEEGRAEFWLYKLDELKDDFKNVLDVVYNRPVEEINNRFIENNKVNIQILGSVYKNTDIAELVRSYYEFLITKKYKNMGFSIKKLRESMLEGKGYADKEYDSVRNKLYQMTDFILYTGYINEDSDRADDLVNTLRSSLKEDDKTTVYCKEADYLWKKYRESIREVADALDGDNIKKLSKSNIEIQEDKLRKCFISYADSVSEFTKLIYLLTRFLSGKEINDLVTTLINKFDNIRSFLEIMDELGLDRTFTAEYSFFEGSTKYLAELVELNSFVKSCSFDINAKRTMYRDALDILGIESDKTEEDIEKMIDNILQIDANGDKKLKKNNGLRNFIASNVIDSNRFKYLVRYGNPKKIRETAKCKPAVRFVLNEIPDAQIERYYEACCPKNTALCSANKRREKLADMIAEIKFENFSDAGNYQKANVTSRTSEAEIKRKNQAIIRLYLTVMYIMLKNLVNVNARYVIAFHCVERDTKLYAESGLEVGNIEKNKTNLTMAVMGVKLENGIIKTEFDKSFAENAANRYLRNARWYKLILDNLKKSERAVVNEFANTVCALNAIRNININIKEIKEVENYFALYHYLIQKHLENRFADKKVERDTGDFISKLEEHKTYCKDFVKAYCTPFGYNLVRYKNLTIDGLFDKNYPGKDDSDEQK
# TEST DETAILS: crRNA (strand 1, pre-loaded); Mg2+; 40 mM Tris-HCl pH 7.5, 150 mM NaCl, 6 mM MgCl2, 1 mM DTT, 0.1% Tween-20, 0.2 mg/ml BSA; 25 C; 10 min per concentration, then washed
# MEASUREMENT PARAMETERS: tags: His6-TwinStrep-SUMO cleaved; N-terminal SNAP kept (SNAP-Surface 488); label: 3' end held by stalled T7 RNA polymerase
PARAMETER MEASURED: Kd (nM)
Field format: number, assumed nM, no unit text.

Look over these answered cases.
target 1 MT 5'PFS GUA 3'PFS CAA (mixed) RNA 1: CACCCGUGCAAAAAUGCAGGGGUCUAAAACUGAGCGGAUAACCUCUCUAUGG RNA 2: GGGAAUGGAUCCACAUCUACGAAUUCGUACCAUAGAGAGGUUAUCCGCUCACAAAGAUCGGAAGAGCACACGU; 19.6
target 1 A1G,C4A (mixed) RNA 1: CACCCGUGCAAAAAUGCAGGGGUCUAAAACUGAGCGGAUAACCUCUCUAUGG RNA 2: GGGAAUGGAUCCACAUCUACGAAUUCGUACCAUAGAGAGGUUAUCCGAUCGCCGAGAUCGGAAGAGCACACGU; 4.5

Next item in the queue.
Ask: Please look up its Kd: target 1 insU 3' of 9,insC 3' of 5 (mixed) RNA 1: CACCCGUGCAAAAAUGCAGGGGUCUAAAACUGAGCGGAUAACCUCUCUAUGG RNA 2: GGGAAUGGAUCCACAUCUACGAAUUCGUACCAUAGAGAGGUUAUUCCGCCUCACCGAGAUCGGAAGAGCACACGU
Result: 12.9
